- systemName: human DP2 (Homo sapiens (Human), UniProt Q9Y5Y4)
- Sequence (Q9Y5Y4 whole entry): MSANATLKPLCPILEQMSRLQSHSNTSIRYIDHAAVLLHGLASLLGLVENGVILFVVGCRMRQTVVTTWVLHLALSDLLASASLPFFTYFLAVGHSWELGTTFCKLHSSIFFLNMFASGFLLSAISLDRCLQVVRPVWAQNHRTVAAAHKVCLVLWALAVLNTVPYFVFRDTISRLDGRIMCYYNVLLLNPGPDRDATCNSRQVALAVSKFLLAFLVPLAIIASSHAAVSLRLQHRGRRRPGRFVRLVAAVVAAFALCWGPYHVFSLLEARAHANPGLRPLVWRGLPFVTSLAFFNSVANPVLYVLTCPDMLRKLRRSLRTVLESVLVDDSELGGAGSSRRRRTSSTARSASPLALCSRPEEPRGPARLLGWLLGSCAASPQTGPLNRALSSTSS
- testProtocol: DP-2 Binding Inhibition Assay (3H-PGD2 binding to membranes of K562 cells expressing DP2)
- runConditions: read-out: EC50 (nM) 4% HSA; inhibition of 3H-PGD2 binding, 4% HSA
Recorded log10 of EC50 by entry
recordedEndpoint: log10 of EC50 (log10 of the value in nM)

compound: N#Cc1cc2c(cc1Oc1ccc(C(=O)Nc3ccc(-c4ccc(Cl)cc4)cc3)cc1)OCCC2C(=O)O (centres unmarked)
log10 of EC50: 2.38

compound: O=C(NCCc1ccccc1Br)c1ccc(Oc2cc3c(cc2Cl)C(C(=O)O)CCO3)cc1 (centres unmarked)
log10 of EC50: 2.28

compound: COc1ccc(Br)cc1CCNC(=O)c1ccc(Oc2cc3c(cc2Cl)C(C(=O)O)CCO3)cc1 (centres unmarked)
log10 of EC50: 2.18

compound: CCOc1cc(Cl)c(Cl)cc1CCNC(=O)c1ccc(Oc2cc3c(cc2Cl)C(C(=O)O)CCO3)cc1 (centres unmarked)
log10 of EC50: 2.14

compound: O=C(NCCC1CC1)c1ccc(Oc2cc3c(cc2Cl)C(C(=O)O)CCO3)cc1 (centres unmarked)
log10 of EC50: 3.52

compound: CSc1cccc(C2CCC(NC(=O)c3ccc(Oc4cc5c(cc4Cl)C(C(=O)O)CCO5)cc3)C2)c1 (centres unmarked)
log10 of EC50: 2.45

compound: O=C(NCCc1ccc(Cl)cc1OCC1CC1)c1ccc(Oc2cc3c(cc2Cl)C(C(=O)O)CCO3)cc1 (centres unmarked)
log10 of EC50: 2.05

compound: O=C(NCCc1c(F)cccc1Cl)c1ccc(Oc2cc3c(cc2Cl)C(C(=O)O)CCO3)cc1 (centres unmarked)
log10 of EC50: 2.67

----------
Recorded EC50 by entry
- systemName: human DP2 (Homo sapiens (Human), UniProt Q9Y5Y4)
- testProtocol: DP-2 Binding Inhibition Assay (3H-PGD2 binding to membranes of K562 cells expressing DP2)
- runConditions: read-out: EC50 (nM) 4% HSA; inhibition of 3H-PGD2 binding, 4% HSA

molecule: O=C(NCCOc1ccccc1)c1ccc(Oc2cc3c(cc2Cl)C(C(=O)O)CCO3)cc1 (stereo not drawn) [Example 220]
systemName: human DP2 (Homo sapiens (Human), UniProt Q9Y5Y4)
qualifier: >
EC50 / nM: 2000
//
molecule: CCc1ccccc1CCNC(=O)c1ccc(Oc2cc3c(cc2Cl)C(C(=O)O)CCO3)cc1 (stereo not drawn) [Example 196]
systemName: human DP2 (Homo sapiens (Human), UniProt Q9Y5Y4)
qualifier: =
EC50 / nM: 269
//
molecule: O=C(NCCc1cccc(Oc2ccccc2)c1)c1ccc(Oc2cc3c(cc2Cl)C(C(=O)O)CCO3)cc1 (stereo not drawn) [Example 149]
systemName: human DP2 (Homo sapiens (Human), UniProt Q9Y5Y4)
qualifier: =
EC50 / nM: 280
//
molecule: Cc1cc(Oc2cc3c(cc2Cl)C(C(=O)O)CCO3)ccc1C(=O)NCCc1ccc(Cl)cc1Cl (stereo not drawn) [Example 183]
systemName: human DP2 (Homo sapiens (Human), UniProt Q9Y5Y4)
qualifier: =
EC50 / nM: 968
//
molecule: Cc1cc(C(=O)NCCc2ccc(Cl)cc2Cl)ccc1Oc1cc2c(cc1Cl)C(C(=O)O)CCO2 (stereo not drawn) [Example 182]
systemName: human DP2 (Homo sapiens (Human), UniProt Q9Y5Y4)
qualifier: =
EC50 / nM: 151
//
molecule: O=C(NCCc1cccc2c1OCO2)c1ccc(Oc2cc3c(cc2Cl)C(C(=O)O)CCO3)cc1 (stereo not drawn) [Example 193]
systemName: human DP2 (Homo sapiens (Human), UniProt Q9Y5Y4)
qualifier: =
EC50 / nM: 640
//
molecule: O=C(NCCc1cc(F)ccc1Oc1ccc(Cl)cc1Cl)c1ccc(Oc2cc3c(cc2Cl)C(C(=O)O)CCO3)cc1 (stereo not drawn) [Example 213]
systemName: human DP2 (Homo sapiens (Human), UniProt Q9Y5Y4)
qualifier: =
EC50 / nM: 45.1
//
molecule: O=C(NCCc1cccc(O)c1)c1ccc(Oc2cc3c(cc2Cl)C(C(=O)O)CCO3)cc1 (stereo not drawn) [Example 83]
systemName: human DP2 (Homo sapiens (Human), UniProt Q9Y5Y4)
qualifier: =
EC50 / nM: 569
//
molecule: COc1cccc(C2CCCC(NC(=O)c3ccc(Oc4cc5c(cc4Cl)C(C(=O)O)CCO5)cc3)C2)c1 (stereo not drawn) [Example 163]
systemName: human DP2 (Homo sapiens (Human), UniProt Q9Y5Y4)
qualifier: =
EC50 / nM: 509

----------
Recorded EC50 by entry
- systemName: human DP2 (Homo sapiens (Human), UniProt Q9Y5Y4)
- testProtocol: DP-2 Binding Inhibition Assay (3H-PGD2 binding to membranes of K562 cells expressing DP2)
- runConditions: read-out: EC50 (Nm) 1% HSA; inhibition of 3H-PGD2 binding, 1% HSA
Where a name gives a salt, the structure may show the parent alone.
recordedEndpoint: EC50 (µM)

compound: N#Cc1cc2c(cc1Oc1ccc(C(=O)Nc3ccc(Cl)cc3)cc1)OCCC2C(=O)O (stereo not drawn)
systemName: human DP2 (Homo sapiens (Human), UniProt Q9Y5Y4)
reportedResult: 0.0233

compound: CC(C)(C)c1ccc(CCNC(=O)c2ccc(Oc3cc4c(cc3C#N)C(C(=O)O)CCO4)cc2)cc1 (stereo not drawn)
systemName: human DP2 (Homo sapiens (Human), UniProt Q9Y5Y4)
reportedResult: 0.0189

compound: N#Cc1cc2c(cc1Oc1ccc(C(=O)Nc3ccc4c(c3)CNCC4)cc1)OCCC2C(=O)O (stereo not drawn) [Example 45, hydrochloride]
systemName: human DP2 (Homo sapiens (Human), UniProt Q9Y5Y4)
reportedResult: 1.37

compound: N#Cc1cc2c(cc1Oc1ccc(C(=O)NC3Cc4ccc(Cl)cc4C3)cc1)OCCC2C(=O)O (stereo not drawn)
systemName: human DP2 (Homo sapiens (Human), UniProt Q9Y5Y4)
reportedResult: 0.0424

compound: N#Cc1cc2c(cc1Oc1ccc(C(=O)NCCc3ccc(C(F)(F)F)cc3)cc1)OCCC2C(=O)O (stereo not drawn)
systemName: human DP2 (Homo sapiens (Human), UniProt Q9Y5Y4)
reportedResult: 0.011

compound: N#Cc1cc2c(cc1Oc1ccc(C(=O)NCCc3cccc4ccccc34)cc1)OCCC2C(=O)O (stereo not drawn)
systemName: human DP2 (Homo sapiens (Human), UniProt Q9Y5Y4)
reportedResult: 0.0121

compound: O=C(NCCc1ccc(Cl)cc1)c1ccc(Oc2c(Cl)cc3c(c2Cl)OCCC3C(=O)O)cc1 (stereo not drawn)
systemName: human DP2 (Homo sapiens (Human), UniProt Q9Y5Y4)
reportedResult: 0.0158

compound: N#Cc1cc2c(cc1Oc1ccc(C(=O)NC3Cc4ccccc4C3)cc1)OCCC2C(=O)O (stereo not drawn)
systemName: human DP2 (Homo sapiens (Human), UniProt Q9Y5Y4)
reportedResult: 0.0773

compound: N#Cc1cc2c(cc1Oc1ccc(C(=O)NC3CC3c3ccc(Cl)cc3)cc1)OCCC2C(=O)O (stereo not drawn)
systemName: human DP2 (Homo sapiens (Human), UniProt Q9Y5Y4)
reportedResult: 0.0121

compound: COc1cc(C2CC2)ccc1CCNC(=O)c1ccc(Oc2cc3c(cc2Cl)C(C(=O)O)CCO3)cc1 (stereo not drawn)
systemName: human DP2 (Homo sapiens (Human), UniProt Q9Y5Y4)
reportedResult: 0.0173

compound: N#Cc1cc2c(cc1Oc1ccc(C(=O)NCCc3ccccc3)cc1)OCCC2C(=O)O (stereo not drawn)
systemName: human DP2 (Homo sapiens (Human), UniProt Q9Y5Y4)
reportedResult: 0.0374

compound: COc1cccc(CCNC(=O)c2ccc(Oc3cc4c(cc3C#N)C(C(=O)O)CCO4)cc2)c1 (stereo not drawn)
systemName: human DP2 (Homo sapiens (Human), UniProt Q9Y5Y4)
reportedResult: 0.0307

compound: N#Cc1cc2c(cc1Oc1ccc(C(=O)NCc3cccc4ccccc34)cc1)OCCC2C(=O)O (stereo not drawn)
systemName: human DP2 (Homo sapiens (Human), UniProt Q9Y5Y4)
reportedResult: 0.109

compound: C[C@H](CNC(=O)c1ccc(Oc2cc3c(cc2C#N)C(C(=O)O)CCO3)cc1)c1ccccc1 (stereo partly drawn)
systemName: human DP2 (Homo sapiens (Human), UniProt Q9Y5Y4)
reportedResult: 0.0593

compound: O=C(NCCc1ccc(Cl)cc1)c1ccc(Oc2cc(Cl)c3c(c2)OCCC3C(=O)O)cc1 (stereo not drawn)
systemName: human DP2 (Homo sapiens (Human), UniProt Q9Y5Y4)
reportedResult: 0.144

compound: Cc1cc(C(=O)NCCc2ccc(Cl)cc2)ccc1Oc1cc2c(cc1C#N)C(C(=O)O)CCO2 (stereo not drawn)
systemName: human DP2 (Homo sapiens (Human), UniProt Q9Y5Y4)
reportedResult: 0.0219

compound: CC(Cc1ccc(Cl)cc1)NC(=O)c1ccc(Oc2cc3c(cc2C#N)C(C(=O)O)CCO3)cc1 (stereo not drawn)
systemName: human DP2 (Homo sapiens (Human), UniProt Q9Y5Y4)
reportedResult: 0.0374

compound: N#Cc1cc2c(cc1Oc1ccc(C(=O)Nc3ccc(C(F)(F)F)cc3)cc1)OCCC2C(=O)O (stereo not drawn)
systemName: human DP2 (Homo sapiens (Human), UniProt Q9Y5Y4)
reportedResult: 0.0119
